Target: phospho p-38 alpha kinase (Homo sapiens)
Construct: purchased Panvera
Assay: P-38 alpha kinase assay (spectrophotometric, pyruvate kinase/lactate dehydrogenase coupled)
Format: biochemical
Conditions: read-out: % Inhibition @ concentration, Table 3; at 1 uM
Output fulfilled for inhibition at 1 µM not less than 50%; output not fulfilled otherwise.

{"columns": ["molecule", "assigned_label"],
 "data": [
  ["COc1ccc(-n2nc(C(C)(C)C)cc2NC(=O)Nc2cccc(C(F)(F)F)c2)cc1 [Example 347]", "not fulfilled"],
  ["Cc1cc(NC(=O)Nc2cccc(Cl)c2Cl)n(-c2ccc(CO)cc2)n1 [Example 450]", "fulfilled"],
  ["COc1ccc(-n2nc(C(C)(C)C)cc2NC(=O)Nc2cccc(OC)c2)cc1 [Example 348]", "not fulfilled"],
  ["CC(C)(C)c1cc(NC(=O)Nc2ccc(Cl)cc2)n(-c2ccc(OCC(=O)O)cc2)n1 [Example 526]", "fulfilled"],
  ["CC(C)(O)c1cccc(-n2nc(-c3ccccc3)cc2NC(=O)Nc2cccc3ccccc23)c1 [Example 432]", "not fulfilled"],
  ["CCOC(=O)c1cccc(-n2nc(C(C)(C)C)cc2NC(=O)Nc2ccc3c(c2)OCO3)c1 [Example 396]", "fulfilled"],
  ["CCOC(=O)CCc1cccc(-n2nc(C(C)C)cc2NC(=O)Nc2ccc(Cl)cc2)c1 [Example 416]", "fulfilled"],
  ["CC(C)(C)c1cc(NC(=O)Nc2cccc(Cl)c2Cl)n(-c2cccc(Cn3c(=O)[nH]n(-c4ccccc4)c3=O)c2)n1 [Example 499]", "fulfilled"]
]}

---

Biological target: phospho p-38 alpha kinase (Homo sapiens, UniProt Q16539)
Construct: purchased Panvera
Sequence (Q16539 whole entry): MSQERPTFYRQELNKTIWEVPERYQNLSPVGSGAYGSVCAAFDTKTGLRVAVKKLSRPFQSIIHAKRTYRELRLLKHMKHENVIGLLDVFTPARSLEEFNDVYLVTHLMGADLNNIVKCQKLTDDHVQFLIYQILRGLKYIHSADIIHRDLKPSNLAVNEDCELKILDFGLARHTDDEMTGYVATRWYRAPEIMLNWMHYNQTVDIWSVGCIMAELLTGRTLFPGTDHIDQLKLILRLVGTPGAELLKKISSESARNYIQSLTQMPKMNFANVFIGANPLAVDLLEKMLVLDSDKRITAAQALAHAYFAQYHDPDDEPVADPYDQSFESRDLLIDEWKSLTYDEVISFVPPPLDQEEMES
Test: P-38 alpha kinase assay (spectrophotometric, pyruvate kinase/lactate dehydrogenase coupled)
Assay type: biochemical
Details: Table 3; rates from […] to 2 h time frame
pIC50: −log10 of the molar value.
outcome_measure: pIC50

{"columns": ["molecule", "target_desc", "outcome_measure", "measured"],
 "data": [
  ["CC(C)(C)c1cc(NC(=O)Nc2cccc(Cl)c2Cl)n(-c2cccc(C(=O)O)c2)n1", "phospho p-38 alpha kinase (Homo sapiens, UniProt Q16539)", "pIC50", 7.38],
  ["CC(C)(C)c1cc(NC(=O)Nc2ccccc2F)n(-c2ccc(CC(=O)O)cc2)n1", "phospho p-38 alpha kinase (Homo sapiens, UniProt Q16539)", "pIC50", 7.24],
  ["CC(C)c1cc(NC(=O)Nc2cccc3ccccc23)n(-c2ccc(C(O)C(F)(F)F)cc2)n1 (centres unmarked)", "phospho p-38 alpha kinase (Homo sapiens, UniProt Q16539)", "pIC50", 6.24],
  ["CC(C)(C)c1cc(NC(=O)Nc2cccc(Cl)c2Cl)n(-c2cccc(CCC(=O)O)c2)n1", "phospho p-38 alpha kinase (Homo sapiens, UniProt Q16539)", "pIC50", 8.15],
  ["COc1cccc(-n2nc(C(C)(C)C)cc2NC(=O)Nc2ccc(C(F)(F)F)cc2)c1", "phospho p-38 alpha kinase (Homo sapiens, UniProt Q16539)", "pIC50", 6.60],
  ["CC(C)(C)c1cc(NC(=O)Nc2cccc(Cl)c2)n(-c2cccc(CCN)c2)n1", "phospho p-38 alpha kinase (Homo sapiens, UniProt Q16539)", "pIC50", 6.40],
  ["CC(C)(C)c1cc(NC(=O)Nc2cccc(Cl)c2)n(-c2cccc(CN)c2)n1", "phospho p-38 alpha kinase (Homo sapiens, UniProt Q16539)", "pIC50", 6.94],
  ["CC(C)(C)c1cc(NC(=O)Nc2ccc(Cl)cc2)n(-c2cccc(CN3C(=O)C(=O)N(c4ccccc4)C3=O)c2)n1", "phospho p-38 alpha kinase (Homo sapiens, UniProt Q16539)", "pIC50", 6.17],
  ["CC(C)(C)c1cc(NC(=O)Nc2ccc(Cl)cc2)n(-c2cccc(C(N)=O)c2)n1", "phospho p-38 alpha kinase (Homo sapiens, UniProt Q16539)", "pIC50", 6.40],
  ["CC(C)(C)c1cc(NC(=O)Nc2ccc(Cl)cc2)n(-c2ccc3c(c2)CNCC3)n1", "phospho p-38 alpha kinase (Homo sapiens, UniProt Q16539)", "pIC50", 6.33],
  ["O=C(Nc1cccc(Br)c1)Nc1cc(-c2ccccc2)nn1-c1cccc(CO)c1", "phospho p-38 alpha kinase (Homo sapiens, UniProt Q16539)", "pIC50", 7.40],
  ["CC(C)(C)c1cc(NC(=O)Nc2cccc(F)c2F)n(-c2cccc(C#N)c2)n1", "phospho p-38 alpha kinase (Homo sapiens, UniProt Q16539)", "pIC50", 7.38],
  ["CC(Cc1ccc(-n2nc(C(C)(C)C)cc2NC(=O)Nc2ccc(Cl)cc2)cc1)C(=O)O (centres unmarked)", "phospho p-38 alpha kinase (Homo sapiens, UniProt Q16539)", "pIC50", 6.03],
  ["COc1cccc(-n2nc(-c3ccccc3)cc2NC(=O)Nc2cccc(C(F)(F)F)c2)c1", "phospho p-38 alpha kinase (Homo sapiens, UniProt Q16539)", "pIC50", 5.61],
  ["CCOC(=O)Cc1ccc(-n2nc(C(C)(C)C)cc2NC(=O)Nc2cccc(Cl)c2Cl)cc1", "phospho p-38 alpha kinase (Homo sapiens, UniProt Q16539)", "pIC50", 7.83],
  ["CC(C)(C)c1cc(NC(=O)Nc2cccc(Cl)c2Cl)n(-c2ccc3c(c2)CNCC3)n1", "phospho p-38 alpha kinase (Homo sapiens, UniProt Q16539)", "pIC50", 7.28],
  ["CC(C)(C)c1cc(NC(=O)Nc2ccc(Cl)cc2)n(-c2cccc(C(O)C(F)(F)F)c2)n1 (centres unmarked)", "phospho p-38 alpha kinase (Homo sapiens, UniProt Q16539)", "pIC50", 6.35],
  ["COc1cccc(-n2nc(C(C)(C)C)cc2NC(=O)Nc2cccc(C)c2)c1", "phospho p-38 alpha kinase (Homo sapiens, UniProt Q16539)", "pIC50", 6.60],
  ["Cc1cc(NC(=O)Nc2cccc3ccccc23)n(-c2cccc(C(C)(C)O)c2)n1", "phospho p-38 alpha kinase (Homo sapiens, UniProt Q16539)", "pIC50", 5.30],
  ["CC(C)(C)c1cc(NC(=O)Nc2cccc3ccccc23)n(-c2ccc3c(c2)CNCC3)n1", "phospho p-38 alpha kinase (Homo sapiens, UniProt Q16539)", "pIC50", 6.30],
  ["CCOC(=O)Cc1ccc(-n2nc(C(C)(C)C)cc2NC(=O)Nc2ccc(Cl)cc2)cc1", "phospho p-38 alpha kinase (Homo sapiens, UniProt Q16539)", "pIC50", 7.83],
  ["COc1cccc(-n2nc(C(C)(C)C)cc2NC(=O)Nc2cc(Cl)cc(Cl)c2)c1", "phospho p-38 alpha kinase (Homo sapiens, UniProt Q16539)", "pIC50", 6.49],
  ["CC(C)(O)c1cccc(-n2nc(C(F)(F)F)cc2NC(=O)Nc2cccc3ccccc23)c1", "phospho p-38 alpha kinase (Homo sapiens, UniProt Q16539)", "pIC50", 6.04],
  ["CC(C)(C)c1cc(NC(=O)Nc2cccc(Cl)c2Cl)n(-c2cccc(C#N)c2)n1", "phospho p-38 alpha kinase (Homo sapiens, UniProt Q16539)", "pIC50", 7.89],
  ["C#CC(O)c1ccc(-n2nc(C(C)(C)C)cc2NC(=O)Nc2cccc3ccccc23)cc1 (centres unmarked)", "phospho p-38 alpha kinase (Homo sapiens, UniProt Q16539)", "pIC50", 7.72],
  ["CC(C)(C)c1cc(NC(=O)Nc2cccc3ccccc23)n(-c2cccc(CN3C(=O)CCC3=O)c2)n1", "phospho p-38 alpha kinase (Homo sapiens, UniProt Q16539)", "pIC50", 6.92],
  ["CC(C)(C)c1cc(NC(=O)Nc2cccc(C(F)(F)F)c2)n(-c2cccc(CO)c2)n1", "phospho p-38 alpha kinase (Homo sapiens, UniProt Q16539)", "pIC50", 6.93],
  ["COc1cccc(-n2nc(C(C)(C)C)cc2NC(=O)Nc2ccccc2F)c1", "phospho p-38 alpha kinase (Homo sapiens, UniProt Q16539)", "pIC50", 6.74],
  ["COc1cccc(-n2nc(C(C)(C)C)cc2NC(=O)Nc2ccc(C#N)cc2)c1", "phospho p-38 alpha kinase (Homo sapiens, UniProt Q16539)", "pIC50", 5.69],
  ["CC(C)(C)c1cc(NC(=O)Nc2cccc(Br)c2)n(-c2cccc(CO)c2)n1", "phospho p-38 alpha kinase (Homo sapiens, UniProt Q16539)", "pIC50", 7.99],
  ["COc1cccc(-n2nc(-c3ccccc3)cc2NC(=O)Nc2cccc(Br)c2)c1", "phospho p-38 alpha kinase (Homo sapiens, UniProt Q16539)", "pIC50", 7.30],
  ["CC(C)(C)c1cc(NC(=O)Nc2cccc3ccccc23)n(-c2cccc(CNC(=O)N3CCCC3)c2)n1", "phospho p-38 alpha kinase (Homo sapiens, UniProt Q16539)", "pIC50", 7.24]
]}
